# measurement.description: C. albicans growth inhibition with fluconazole, primary screen, CaCi-2 strain, Alamar Blue fluorescence (AID 1979);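 further: all wells also contain fluconazole at 8 µg/ml as a sub-toxic cotreatment; 0% = median of DMSO wells and 100% = median of geldanamycin control wells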
# test.settings: C. albicans CaCi-2 + fluconazole, 48 h, stronger effect = higher value, concentration not given here
Among all 300,000 compounds or so, about 1,700 (0.57%) were called active. Another 2% or so got no clear call; they are omitted. The full list was thinned out, with actives kept by preference.
outcome.measure: growth inhibition (%)
Field: numeric (%). Do not append units.

Sample records with growth inhibition:
{"molecule": "Oc1ccc2ccccc2c1N=Nc1nccs1", "uom": "%", "growth inhibition": 0.433}
{"molecule": "Cc1cccc(-n2nc3c(c2NC(=O)c2cc4ccccc4o2)CS(=O)(=O)C3)c1", "uom": "%", "growth inhibition": 7.71}
{"molecule": "Oc1ccccc1/C=N/n1c(-c2cccs2)n[nH]c1=S", "uom": "%", "growth inhibition": -0.357}

Fill in: growth inhibition of COc1ccc2oc(C(=O)OCC(=O)N(CC(C)C)c3c(N)n(Cc4ccccc4)c(=O)[nH]c3=O)c(C)c2c1 is ___
5.5

Next up: Cc1ccc(C)c(NC(=O)COC(=O)Cn2c(C)csc2=O)c1
-4.71

CN(C)CCNC(=O)c1[nH]nc2c1CCc1ccccc1-2 ?
-8.27

Try the molecule COc1ccc(C(=O)NC(=S)NNC(=O)c2c(-c3ccccc3)noc2C)cc1
32.7

Param item: CC(=O)Nc1cccc(C(=O)OCC(=O)c2ccc3c(c2)OCO3)c1
4.88

And S=c1[nH]nc(-c2cccs2)n1/N=C/c1cn(-c2ccccc2)nc1-c1ccc(Cl)cc1 ?
-0.57

Also Oc1ccc(N=Nc2nccs2)c(O)c1 , if possible.
85.9

Also O=C(Nc1cccc(-c2nc3ccccc3[nH]2)c1)c1ccc(C(=O)Nc2cccc(-c3nc4ccccc4[nH]3)c2)cc1 ?
-12.9

----------
# measurement.description: C. albicans growth inhibition with fluconazole, primary screen, CaCi-2 strain, Alamar Blue fluorescence (AID 1979);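 further: all wells also contain fluconazole at 8 µg/ml as a sub-toxic cotreatment; 0% = median of DMSO wells and 100% = median of geldanamycin control wells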
# test.settings: C. albicans CaCi-2 + fluconazole, 48 h, stronger effect = higher value, concentration not given here
The campaign covered roughly 300,000 compounds. About 1,700 (0.57%) were called active. Roughly 2% stayed inconclusive and do not appear here. The sample holds actives, similar compounds and a random draw of the others, so the mix is not that of the screen.
Each record here notes measured growth inhibition.
Express the result in % but write the number alone.

Param item = COc1cc(C2NC(=O)NC(c3ccccc3)=C2C(C)=O)c(Br)cc1OCC(N)=O (stereo not given) ; retrieve measured growth inhibition.
6.65

Try this molecule next: Cc1cccc(C2c3[nH]c4ccccc4c3CCN2C(=O)c2cc(-c3cccn3C)n[nH]2)n1 (stereo not given)
79.7

What do you have for Cc1cccc(C(=O)N2CCc3c([nH]c4ccccc34)C2CC(C)C)n1 (stereo not given) ?
12.9

Also need Cc1ccc(S(=O)(=O)N2CCN(C(=O)Cc3sc(C)nc3-c3ccc(F)cc3)CC2)c(C)c1 , thanks.
-1.25

Query Cc1onc(NC(=O)c2ccc([N+](=O)[O-])o2)c1Br next
-0.786

----------
# measurement.description: C. albicans growth inhibition with fluconazole, primary screen, CaCi-2 strain, Alamar Blue fluorescence (AID 1979);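 further: all wells also contain fluconazole at 8 µg/ml as a sub-toxic cotreatment; 0% = median of DMSO wells and 100% = median of geldanamycin control wells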
# test.settings: C. albicans CaCi-2 (fluconazole-resistant clinical isolate) + fluconazole, 48 h, concentration not given here
Hit rate of the full screen: of about 300,000 compounds, about 1,700 (0.57%) were called active. Inconclusive results (about 2%) are left out.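 The calls were made as follows: active = growth inhibition above about 58% in most replicates (limit read from the data, passing the limit was not always enough); inconclusive = exactly half the replicates above a set limit; inactive = most replicates below a set limit.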 Many of the other results were omitted from the sample, so actives are more common in it than they were.
Respond only with the outcome that fits, drawn from 1 (active), 0 (inactive)

Example results:
{"compound": "Cc1ccc(S(=O)(=O)N2CCC(C(=O)OCC(=O)N(C)c3ccccc3)CC2)cc1C", "class": 0}
{"compound": "CCOc1ccc(-n2c(O)c(/C=N/Nc3nc(C)cc(C)n3)c3ccccc3c2=O)cc1", "class": 1}
{"compound": "CN(C)c1ccc(/C=N\\S(=O)(=O)c2ccccc2)cc1", "class": 0}
{"compound": "CCCn1c(C)cc(/C=C(\\C#N)C(=O)OCC(=O)N(C)c2c(N)n(Cc3ccccc3)c(=O)[nH]c2=O)c1C", "class": 0}
{"compound": "CCOc1ccc(-n2c(O)c(/C=N/c3ccnn3Cc3ccncc3)c3ccccc3c2=O)cc1", "class": 0}

Could you check what this test reported for Cc1cc(C(=O)OC(C)C(=O)NC2CCCCC2C)c(C)o1 (stereo unspecified) ?
0

Follow-up item: CCOc1cc(N2CCOCC2)c(OCC)cc1NC(=O)COc1cccc(Cl)c1
0

Can you check CCN(CC)CCCN=Cc1c(O)n(-c2ccc(C)cc2)c(=O)c2ccccc12 next?
0

Then CCNS(=O)(=O)c1ccc(NC(=O)Nc2cccc(C(F)(F)F)c2)cc1 ?
0

Do the same for CCOC(=O)c1c(C)[nH]c(C(=O)OCC(=O)N2CCCC2=O)c1C please
0

How about Cc1ccc(C(=O)NNC(=O)C(C)Oc2ccc3ccccc3c2)o1 (stereo unspecified) ?
0

Can you check CC[n+]1cc(C)ccc1/C=C/c1ccc(N(C)C)cc1 next?
1

Entry O=C(Nc1ccccc1F)c1ccc2c(c1)OCO2 please
0

How about this compound: COc1ccc2cc(S(=O)(=O)Nc3ccccn3)ccc2c1
0

// next record CCOc1cc(N2CCOCC2)c(OCC)cc1NC(=O)COc1cccc2cccnc12
1

Same read-out for CCOc1cc(C(=O)Nc2ccc(S(=O)(=O)Nc3cnc4ccccc4n3)cc2)cc(OCC)c1OCC ?
0
